Target: CXCL9 (MIG) (Homo sapiens)
Sequence: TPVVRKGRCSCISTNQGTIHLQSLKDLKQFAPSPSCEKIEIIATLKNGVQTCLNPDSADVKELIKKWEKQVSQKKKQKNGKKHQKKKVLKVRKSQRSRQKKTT
Assay: ELONA
Settings: indole-clicked EdU at all N [31,45,49,53 (indole-clicked EdU)]; n=2
OBSERVED_PROPERTY: Kd (nM)

>>> result("CACGACGCAAGGGACCACAGGGAGGGAGGGTGGGCAAAGGGCCCTAAGTCCGTAACAAAAACACAGCACGACACCGCAGAGGCA [G123 In]")
39

----------
Target: CXCL11 (Homo sapiens)
Sequence: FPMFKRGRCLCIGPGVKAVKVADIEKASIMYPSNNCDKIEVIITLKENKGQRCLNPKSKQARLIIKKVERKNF
Test: ELONA
Details: indole-clicked EdU at all N [31,45,49,53 (indole-clicked EdU)]; n=2
OBSERVED_PROPERTY: Kd (nM)

>>> result("CACGACGCAAGGGACCACAGGGAGGGAGGGTGGGCAAAGGGCCCTAAGTCCGTAACAAAAACACAGCACGACACCGCAGAGGCA [G123 In]")
73

Each recorded value in this set is attributed to patent US20230358760.
